For each of the compounds below, state its normalized growth.
# measurement description: chemical genetic growth profiling, strain panel (AID 1159580);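 note: tested at 20 µM; growth read once vehicle control cultures reached saturation at 30 °C; 1 = growth at the plate median or of vehicle wells; lower values mean less growth of the strain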
# test context: S. cerevisiae deletion strains, growth OD, locus YLR268W, strain sec22, hits give low values
Hit rate of the full screen: of about 5,500 compounds, about 2,000 (36%) were called active. Another 18% or so got no clear call; they are omitted. Some of the results follow. Where a SMILES comes first, the peptide text is derived from it. The star is where a group is joined. For = O=C*
Give bare numbers.

Recorded normalized growth, per entry:
CNC(=O)O/N=C\C(C)(C)SC    0.991
CC1(C)CC[C@]2(C(=O)O)CC[C@]3(C)C(=CCC4[C@@]5(C)CC[C@@H](O)C(C)(C)C5CC[C@]43C)C2C1 (stereo not given in full)    0.986
Cc1cc(O)cc(C)c1Cl    1.01
Cc1cn([C@H]2C[C@H](N=[N+]=[N-])[C@@H](CO)O2)c(=O)[nH]c1=O    1
Cc1cc(O)c2c(c1)Cc1cccc(O)c1C2=O    0.93

For each of the compounds below, state normalized growth.
1. CCCOc1ccccc1-c1nc2n[nH]nc2c(=O)[nH]1
2. Cc1ccc(S(=O)(=O)NC(=O)NN2CC3CCCC3C2)cc1 (stereo not given)
3. Cc1cc(O)cc(O)c1C(=O)O
4. Nc1ccc(S(=O)(=O)Nc2ccnn2-c2ccccc2)cc1

A)
1.01
0.999
1.04
0.998

For each of the compounds below, state normalized growth.
1. CC(=O)NC(C(=O)O)C(C)(C)SN=O (stereo not given)
2. N#CC(O[C@@H]1O[C@H](CO[C@@H]2O[C@H](CO)[C@@H](O)[C@H](O)[C@H]2O)[C@@H](O)[C@H](O)[C@H]1O)c1ccccc1 (stereo not given in full)
3. O=C(COc1ccc(Cl)cc1)N1CCN(Cc2ccc3c(c2)OCO3)CC1
4. Cc1cc(O)ccc1Cl
5. CSCCC(NC=O)C(=O)NC(Cc1ccccc1)C(=O)O (stereo not drawn) (For-Met-Phe-OH; configuration not given here)
6. N=C(N)c1ccc(OCCCCCOc2ccc(C(=N)N)cc2)cc1

A)
1
0.972
0.911
0.991
1.02
0.887
